Exercise: for every item that follows, state its recorded selectivity ratio.
# experimental details: Selectivity index, ratio of IC50 for human HepG2 cells to MIC for Mycobacterium tuberculosis
# Format: toxicity, cell-based
# cond: read-out: Selectivity Index

Value of selectivity ratio reported for the molecule Cc1ccc(C(=O)Oc2ccc(Cl)cc2C(=O)Nc2ccc(C(F)(F)F)cc2)cc1 is > 100

Per the records, this molecule ( Cc1ccc(C(=O)Oc2ccc(Cl)cc2C(=O)Nc2ccc(Cl)c(Cl)c2)cc1 ) has selectivity ratio equal to > 50

Form field selectivity ratio, entry O=C(Oc1ccc(Br)cc1C(=O)Nc1ccc(C(F)(F)F)cc1)c1ccc([N+](=O)[O-])cc1 : > 100

The reported selectivity ratio of the molecule Cc1ccc(C(=O)Oc2ccc(Br)cc2C(=O)Nc2ccc(C(F)(F)F)cc2)cc1 was > 50

selectivity ratio in this record for NNC(=O)c1ccncc1 : > 250

Just so you know, measured selectivity ratio for O=C(Oc1ccc(Cl)cc1C(=O)Nc1ccc(C(F)(F)F)cc1)c1ccc([N+](=O)[O-])cc1 came out at > 50

So for O=C(Oc1ccc(Cl)cc1C(=O)Nc1ccc(Cl)c(Cl)c1)c1ccc(Br)cc1 , the logged selectivity ratio turned out to be > 50

get_value(item= O=C(Oc1ccc(Br)cc1C(=O)Nc1ccc(C(F)(F)F)cc1)c1ccc(Br)cc1 , readout=selectivity ratio) returns > 50

// O=C(Oc1ccc(Cl)cc1C(=O)Nc1ccc(Cl)c(Cl)c1)c1ccc([N+](=O)[O-])cc1 : selectivity ratio value = > 50

// selectivity ratio lookup, molecule = Nc1ccc(C(=O)O)c(O)c1 , result: 35.8

Reported selectivity ratio of O=C(Oc1ccc(Cl)cc1C(=O)Nc1ccc(C(F)(F)F)cc1)c1ccc(Br)cc1 : > 50

###

# System: Mycobacterium tuberculosis
# experimental details: Antimycobacterial activity against Mycobacterium tuberculosis H37Rv 331/88 after 14 days by microdilution method
# Type: functional
# cond: H37Rv 331/88, 336 h
property name: MIC

// field: MIC; key: O=C(Oc1ccc(Cl)cc1C(=O)Nc1ccc(Cl)c(Cl)c1)c1ccc(C(F)(F)F)cc1 ; value = 1 µM

The reported value for Cc1ccc(C(=O)Oc2ccc(Br)cc2C(=O)Nc2ccc(C(F)(F)F)cc2)cc1 in terms of MIC is 1 µM

Form field MIC, entry O=C(Oc1ccc(Cl)cc1C(=O)Nc1ccc(Cl)c(Cl)c1)c1ccc(Br)cc1 : 1 µM

# MIC of O=C(Nc1ccc(C(F)(F)F)cc1)c1cc(Br)ccc1O = 1 µM

Looking up O=C(Oc1ccc(Cl)cc1C(=O)Nc1ccc(C(F)(F)F)cc1)c1ccc(Br)cc1 , I found its MIC recorded as 1 µM

Documented MIC of O=C(Oc1ccc(Br)cc1C(=O)Nc1ccc(C(F)(F)F)cc1)c1ccc(Br)cc1 : 1 µM

Looking up O=C(Oc1ccc(Br)cc1C(=O)Nc1ccc(C(F)(F)F)cc1)c1ccc([N+](=O)[O-])cc1 , I see its MIC listed as 0.5 µM

Entry under test: O=C(Oc1ccc(Cl)cc1C(=O)Nc1ccc(C(F)(F)F)cc1)c1ccc([N+](=O)[O-])cc1 . Its MIC was 0.5 µM

Input O=C(Oc1ccc(Cl)cc1C(=O)Nc1ccc(C(F)(F)F)cc1)c1ccc(C(F)(F)F)cc1 . Output MIC: 1 µM

Form: molecule = Cc1ccc(C(=O)Oc2ccc(Cl)cc2C(=O)Nc2ccc(C(F)(F)F)cc2)cc1 ; MIC = 0.5 µM

###

# experimental details: in vitro
# cond: human, HepG2 cells
# Description: Selectivity index, ratio of IC50 for human HepG2 cells to MIC for Mycobacterium kansasii 6509/96
property name: selectivity ratio

# compound NNC(=O)c1ccncc1 ; its selectivity ratio = ≥ 31.3

###

Please go through the items and note down their MIC.
# Tested on: Trichosporon asahii
# experimental details: Antifungal activity against Trichosporon asahii 1188 after 24 hrs by broth microdilution method
# Format: functional
# cond: Trichosporon asahii, 1188, 24 h

Record summary for O=C(Oc1ccc(Cl)cc1C(=O)Nc1ccc(Cl)c(Cl)c1)c1ccc([N+](=O)[O-])cc1 : reported MIC = 31.2 µM

Looking up Cc1ccc(C(=O)Oc2ccc(Cl)cc2C(=O)Nc2ccc(C(F)(F)F)cc2)cc1 , I see its MIC listed as > 250 µM

Kindly note the recorded MIC for O=C(Oc1ccc(Cl)cc1C(=O)Nc1ccc(Cl)c(Cl)c1)c1ccc(Br)cc1 , which is 500 µM

// sample Cc1ccc(C(=O)Oc2ccc(Br)cc2C(=O)Nc2ccc(C(F)(F)F)cc2)cc1 , its MIC was > 125 µM

// sample OC(Cn1cncn1)(Cn1cncn1)c1ccc(F)cc1F [FLUCONAZOLE] , its MIC was 4 µM

###

# Test system: Mycobacterium kansasii
# experimental details: Antimycobacterial activity against Mycobacterium kansasii 6509/96 after 7 days by microdilution method
# Assay type: functional
# cond: 6509/96, 168 h
property name: MIC (µM)
Give the value in µM but do not write µM after it.

MIC for O=C(Oc1ccc(Br)cc1C(=O)Nc1ccc(C(F)(F)F)cc1)c1ccc(Br)cc1 is 4

Consider O=C(Oc1ccc(Cl)cc1C(=O)Nc1ccc(Cl)c(Cl)c1)c1ccc([N+](=O)[O-])cc1 . Its measured MIC is 2

Entry Cc1ccc(C(=O)Oc2ccc(Cl)cc2C(=O)Nc2ccc(C(F)(F)F)cc2)cc1 , MIC reported as 1

The compound identified as O=C(Oc1ccc(Br)cc1C(=O)Nc1ccc(C(F)(F)F)cc1)c1ccc(C(F)(F)F)cc1 registered its MIC at 1

Sample Cc1ccc(C(=O)Oc2ccc(Br)cc2C(=O)Nc2ccc(C(F)(F)F)cc2)cc1 ; MIC observed: 2

Input O=C(Oc1ccc(Cl)cc1C(=O)Nc1ccc(C(F)(F)F)cc1)c1ccc(Br)cc1 . Output MIC: 1

Measured MIC of O=C(Nc1ccc(Cl)c(Cl)c1)c1cc(Cl)ccc1O : 8

For reference, reported MIC for O=C(Oc1ccc(Cl)cc1C(=O)Nc1ccc(Cl)c(Cl)c1)c1ccccc1 stands at 1

MIC measured on O=C(Oc1ccc(Br)cc1C(=O)Nc1ccc(C(F)(F)F)cc1)c1ccccc1 = 2

Notebook: O=C(Oc1ccc(Cl)cc1C(=O)Nc1ccc(Cl)c(Cl)c1)c1ccc(C(F)(F)F)cc1 , MIC read as 1

Lab note: measured MIC of NNC(=O)c1ccncc1 was 2

Reported MIC for O=C(Oc1ccc(Cl)cc1C(=O)Nc1ccc(C(F)(F)F)cc1)c1ccc([N+](=O)[O-])cc1 was 1

Data point: O=C(Nc1ccc(C(F)(F)F)cc1)c1cc(Cl)ccc1O ; MIC = 2
